Assay: binders of probe aFST on microarray, primary screen, stem cell growth factor project, biochemical, small-molecule microarray, fluorescence 635/667 (AID 1086);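 further: score merges 667 nm fluorescence with signal-to-noise of each printed compound spot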
Details: higher = more signal
Value Type: composite z-score
Please give the numeric answer without any surrounding text.

Which composite z-score value is on record for COC(=O)[C@H](C)NC(=O)[C@@H](C)CO ? 0.357

Which composite z-score value is on record for O=C1C2=CC[C@H]3C(=O)N(Cc4ccc5c(c4)OCO5)C(=O)[C@H]3[C@H]2[C@H](O)[C@@H]2O[C@H]12 ? 0.407

Which composite z-score value is on record for C=C(/C(=C/C[C@H](OC(C)=O)c1ccc(OCCO)cc1)c1cnc2ccccc2c1)C(C)C ? 0.182

Which composite z-score value is on record for C#C[C@@H](CC)O[Si](C#Cc1ccc(Oc2ccccc2)cc1)(C(C)C)C(C)C ? 0.168

Which composite z-score value is on record for O=C1CCCC2OC12C(O)CCc1ccccc1 (stereo unspecified) ? -0.0128

Which composite z-score value is on record for CCc1cc2c(nc1CC)CCN(CCC(C)=NOC(C)CN1CCCc3nc(C)c(C)cc31)C2 (stereo unspecified) ? 1.15

Which composite z-score value is on record for CC(C)=CCCC(C)=CCON=C1[C@H]2CCn3c(=O)n(C)c(=O)n3[C@H]2[C@H](O)[C@@H]2O[C@H]12 ? 0.412

Which composite z-score value is on record for C[C@@H]1C=CCC(=O)OC[C@H](C)C(=O)N[C@@H](C)C(=O)OC1 ? 0.258

Which composite z-score value is on record for C#CCCCON=C1C[C@@H](O)[C@@H](O)[C@@H]2[C@@H]3C(=O)N(c4cccc(Oc5ccccc5)c4)C(=O)[C@@H]3CC[C@@H]12 ? 0.319

Which composite z-score value is on record for CC(=O)OC[C@H]1O[C@@H](ON=C(C)CCN2CCc3nc(-c4ccccc4)c(-c4ccccc4)cc3C2)[C@H](OC(C)=O)[C@@H](OC(C)=O)[C@@H]1OC(C)=O ? 0.473

Which composite z-score value is on record for CCCCC(=C=CC[C@H](O)c1ccccc1OCCO)C[C@H](O)COCc1ccccc1 ? 0.324

Which composite z-score value is on record for C#CCCCON=C1C[C@@H](O)[C@@H](O)[C@@H]2[C@@H]3C(=O)N([C@@H](C)c4ccccc4)C(=O)[C@@H]3CC[C@H]12 ? 0.342

Which composite z-score value is on record for CO[C@@H]1COC(=O)[C@H](C)NC(=O)[C@@H](C)COC(=O)CCC[C@H]1C ? -0.163

Which composite z-score value is on record for CC(C)CON=C1[C@H]2CCn3c(=O)n(-c4ccccc4)c(=O)n3[C@H]2[C@H](O)[C@@H]2O[C@H]12 ? 0.204

Which composite z-score value is on record for CCN1C(=O)[C@H]2[C@H]3[C@H](O)[C@H](O)CC(=NOCc4ccccc4)[C@@H]3CC[C@H]2C1=O ? 0.0882

Which composite z-score value is on record for O=C1c2ccccc2[C@@]2(Cc3ccccc3N(C3CC3)C2=O)[C@H](c2ccc(CO)cc2)N1Cc1ccccc1C(F)(F)F ? -0.0438

Which composite z-score value is on record for CC(C)CN1CCc2nc(-c3ccccc3)c3c(c2CC1)CO[C@@H](C)C3 ? 0.594

Which composite z-score value is on record for CC(C)N1CC=CC23O[C@@H]4C=CCCOC(=O)C4[C@H]2C(=O)N(CCCCCCO)[C@@H]3C1=O (stereo partly specified) ? -0.357

Which composite z-score value is on record for COc1ccc([Si](C)(C)[C@@H]2[C@@H](CC(=O)N3CCC[C@H]3CO)O[C@]3(C(=O)N(Cc4cccc(N5CCC5=O)c4)c4ccccc43)[C@H]2C)cc1 ? -0.187

Which composite z-score value is on record for COCCOC(=O)N1C(=O)[C@@]2(c3cc(C#CC4(O)CCCCCC4)ccc31)[C@H](C(=O)N1CCN(c3ncccn3)CC1)[C@H]1C(=O)O[C@H](c3ccccc3)[C@H](c3ccccc3)N1[C@@H]2c1ccc(OCCO)cc1 ? 0.517

Which composite z-score value is on record for CCOC(=O)C1=CC[C@H]2C(=O)N(CC)C(=O)[C@@H]12 ? 0.406

Which composite z-score value is on record for O=C1[C@H]2[C@H]3[C@H](O)[C@H](O)CC(=NO[C@@H]4O[C@H](CO)[C@@H](O)[C@H](O)[C@H]4O)[C@@H]3CC[C@H]2C(=O)N1c1ccc(F)cc1F ? 0.0076

Which composite z-score value is on record for COc1ccc(O[C@H]2C=C[C@@H](c3ccccc3)O[C@@H]2COC(=O)CCC(C)=NO[C@@H](C)c2cc(-c3c(C)cc(C)cc3C)no2)cc1 ? -0.666

Which composite z-score value is on record for CCOc1ccc(N2C(=O)/C(=C/C=C/c3ccccc3OC)S(=O)(=O)C2c2cccc([N+](=O)[O-])c2)cc1 (stereo unspecified) ? 0.323

Which composite z-score value is on record for COc1ccc(O[C@@H]2[C@H](O)CO[C@H]2C=CC#Cc2ccccc2)cc1 ? -0.182

Which composite z-score value is on record for CC(=O)OC[C@H]1O[C@H](CCON=C[C@@H](C)[C@H](OCc2ccccc2)C(C)C)C=C[C@@H]1OC(C)=O ? 0.0538

Which composite z-score value is on record for CN1C(=O)C2C=CC(C(O)C(c3ccccc3)c3ccccc3)N(NC(=O)OC(C)(C)C)C2C1=O (stereo unspecified) ? 1.79

Which composite z-score value is on record for CCc1cc2c(nc1CC)CCN(CCC(C)=NOC[C@@H](O)[C@H]1O[C@@H]3OC(C)(C)O[C@@H]3[C@H]1O)C2 ? 0.0391

Which composite z-score value is on record for O=C1[C@H]2[C@H]3[C@H](O)[C@H](O)CC(=NOC[C@@H](O)COCc4ccco4)[C@@H]3CC[C@H]2C(=O)N1c1ccc(F)cc1F ? -0.128

Which composite z-score value is on record for CC(C)(C)N1C(=O)[C@H]2[C@H]3[C@H](O)[C@H](O)CC(=NO[C@@H]4O[C@H](CO)[C@@H](O)[C@H](O)[C@H]4O)[C@@H]3CC[C@H]2C1=O ? 0.135

Which composite z-score value is on record for CCOC(=O)CCN1C(=O)[C@H]2[C@H]3[C@H](O)[C@H](O)CC(=NOC[C@@H](O)COCc4ccco4)[C@H]3CC[C@H]2C1=O ? 0.132

---

Test system: Plasmodium falciparum Sir2 (PF13_0152, Sir2A)
Assay: pfSir2 binders on small-molecule microarrays, primary screen, biochemical, small-molecule microarray, 635 nm fluorescence (AID 1098);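 further: score merges spot fluorescence intensity with its signal-to-noise ratio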
Settings: small-molecule microarray binding, fluorescence 635 nm; higher = more signal
Quick rule for you: composite z-score at 0.6 or higher means T, lower means F.

State whether the measured composite z-score reaches 0.6, counting equality as reaching it, for O=C1[C@H]2[C@H]3[C@H](O)[C@H](O)CC(=NO[C@@H]4O[C@H](CO)[C@@H](O)[C@H](O)[C@H]4O)[C@@H]3CC[C@H]2C(=O)N1c1ccc(F)cc1F F

State whether the measured composite z-score reaches 0.6, counting equality as reaching it, for CC(=O)OC[C@H]1O[C@@H](ON=C[C@@H](C)[C@H](OCc2ccccc2)C(C)C)[C@H](OC(C)=O)[C@@H](OC(C)=O)[C@@H]1OC(C)=O F

State whether the measured composite z-score reaches 0.6, counting equality as reaching it, for CN1C(=O)C2C=CC(C(O)c3ccc(I)cc3)N(NC(=O)OC(C)(C)C)C2C1=O (stereo unspecified) T

State whether the measured composite z-score reaches 0.6, counting equality as reaching it, for COc1ccc(O[C@H]2C=C[C@@H](c3ccccc3)O[C@@H]2COC(=O)CCC(C)=NOCC[C@@H]2C=C[C@H](OC(C)=O)[C@@H](COC(C)=O)O2)cc1 T

State whether the measured composite z-score reaches 0.6, counting equality as reaching it, for O=C1[C@H]2[C@H]3[C@H](O)[C@H](O)CC(=NOC[C@@H](O)COCc4ccco4)[C@@H]3CC[C@H]2C(=O)N1c1ccc(F)cc1F F

---

Assay: compound binding in COS7 lysate, probe aLAP1, primary screen, cell lysate, small-molecule microarray (AID 1124);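 further: lysate comes from COS7 cells expressing LAP1 and is applied at 0.3 µg/mL; score merges spot fluorescence near 667 nm with signal-to-noise over triplicate slides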
Details: probe aLAP1, fluorescence, higher = more signal
Exercise: for every item that follows, state its recorded composite z-score.
Please give the numeric answer without any surrounding text.

Which composite z-score value is on record for CCCNC(=O)OC[C@H]1O[C@H](CCON=C[C@@H](OC)[C@H](C)C=CCC(=O)OC)C=C[C@@H]1Oc1ccc(OC)cc1 ? 0.325

Which composite z-score value is on record for CO[C@H]([C@@H](C)[C@H](OC)c1ccccc1)[C@H](C)[C@@H](OC)[C@H](C)C(C)=O ? -0.32

Which composite z-score value is on record for CCCCCCc1nc(CCCc2cc3c(c(CCCCCC)n2)[Si](C(C)C)(C(C)C)O[C@H]3c2ccccc2)cc2c1[Si](C(C)C)(C(C)C)O[C@H]2c1ccccc1 ? -0.0919

Which composite z-score value is on record for COC(=O)c1c(CC[C@@H](CO)NC(=O)N[C@H](Cc2ccccc2)Cn2cc(-c3ccccc3N)nn2)oc(C(C)=O)c1C(=O)OC ? 0.481

Which composite z-score value is on record for O=C(NN=C1C[C@@H](O)[C@@H](O)[C@@H]2[C@@H]3C(=O)N(c4cccc(Oc5ccccc5)c4)C(=O)[C@@H]3CC[C@H]12)OCc1ccccc1 ? 0.122

Which composite z-score value is on record for N#Cc1ccc(NN2C(C(O)c3cc(C(F)(F)F)cc(C(F)(F)F)c3)C=CC3C(=O)N(c4ccccc4)C(=O)C32)cc1 (stereo not given) ? 0.557

Which composite z-score value is on record for C=CCN1C(=O)[C@]2(O[C@H](CCn3cc(CCO)nn3)[C@@H]([Si](C)(C)c3ccc(OC)cc3)[C@@H]2C)c2cc(N3CCOC3=O)ccc21 ? 1.21

Which composite z-score value is on record for COCCCNC(=O)[C@@]1(C)c2ccccc2C(=O)N(Cc2ccc(OC(F)(F)F)cc2)[C@H]1c1ccc(CO)cc1 ? 0.884

Which composite z-score value is on record for C=C(/C(=C/C[C@@H](OC(=O)c1ccncc1)c1ccc(OCCO)cc1)c1cnc2ccccc2c1)C(C)C ? 0.727

Which composite z-score value is on record for CC(CCN1CCc2nc(-c3ccccc3)c(-c3ccccc3)cc2C1)=NO[C@@H](C)c1cn([C@H](CO)Cc2ccccc2)nn1 ? -0.208

Which composite z-score value is on record for CO[C@@H]1COC(=O)CC=C[C@@H](C)[C@@H]2C=C[C@H](O)[C@@H](COC(=O)[C@H](C)NC(=O)CC=C[C@H]1C)O2 ? 1.27

Which composite z-score value is on record for CC(C)NC(=O)[C@@]1(c2ccc([N+](=O)[O-])cc2)CC(=O)N(CC23CC4CC(CC(C4)C2)C3)[C@@H]1c1ccc(CO)cc1I ? 1.04

Which composite z-score value is on record for CO[C@H]1COC(=O)[C@@H]2CCCN2C(=O)[C@@H](C)COC(=O)CC=C[C@@H]1C ? 0.359

Which composite z-score value is on record for CO[C@@H]1COC(=O)CCC[C@@H](C)[C@H](OC)COC(=O)CCC[C@H]1C ? -0.0693

Which composite z-score value is on record for COc1ccc([Si](C)(C)[C@@H]2[C@@H](CC(=O)N3CCC[C@H]3CO)O[C@]3(C(=O)N(Cc4cccc(N5CCC5=O)c4)c4ccccc43)[C@H]2C)cc1 ? 0.317
